- Test system: NOMO1
- method.description: cell viability relative to DMSO control; higher = less cytotoxic
- measurement.conditions: RPMI 5 mM glucose + 10% FBS; 48 h; 0.000781 µM
endpoint: cell viability (%)
Give bare numbers, in %.

Some solved entries appear below for comparison.
[[record]]
compound = "C[C@](O)(CS(=O)(=O)c1ccc(F)cc1)C(=O)Nc1ccc(C#N)c(C(F)(F)F)c1"
unit_of_measure = "%"
recorded_number = 103

[[record]]
compound = "CC(C)C1NC(=O)C(NC(=O)C2=C3\\N=C\\4/C(=C(C)\\C(=O)\\C(=C4C(=O)NC5C(C)OC(=O)C(C(C)C)N(C)C(=O)CN(C)C(=O)C6CCCN6C(=O)C(NC5=O)C(C)C)N)OC3=C(C)C=C2)C(C)OC(=O)C(C(C)C)N(C)C(=O)CN(C)C(=O)C7CCCN7C1=O (stereo not drawn)"
unit_of_measure = "%"
recorded_number = 7.96

[[record]]
compound = "N#CCNC(=O)c1ccc(-c2ccnc(Nc3ccc(N4CCOCC4)cc3)n2)cc1"
unit_of_measure = "%"
recorded_number = 88.7

[[record]]
compound = "CNc1nc(Nc2ccc(C(=O)N3CCOCC3)cc2OC)ncc1Cl"
unit_of_measure = "%"
recorded_number = 103

[[record]]
compound = "COc1ccccc1OCC(O)COC(N)=O (stereo not drawn)"
unit_of_measure = "%"
recorded_number = 102

[[record]]
compound = "CNC(=O)c1ccc2cc(C3(O)CCn4cncc43)ccc2c1 (stereo not drawn)"
unit_of_measure = "%"
recorded_number = 105

[[record]]
compound = "Clc1ccc(-c2nc3sccn3c2/C=N/OCc2ccc(Cl)c(Cl)c2)cc1"
unit_of_measure = "%"
recorded_number = 121

[[record]]
compound = "C[C@]12CC[C@H]3[C@@H](CC[C@H]4NC(=O)\\C=C/[C@]34C)[C@@H]1CC[C@@H]2C(=O)NC5=CC(=CC=C5C(F)(F)F)C(F)(F)F"
unit_of_measure = "%"
recorded_number = 117


For every item below, please supply its cell viability.
1. C[C@](Cc1c[nH]c2ccccc12)(NC(=O)OC1C2CC3CC(C2)CC1C3)C(=O)NC[C@H](NC(=O)CCC(=O)O)c1ccccc1 (stereo partly drawn)
2. CCN1CCN(CC1)CC(=O)NC2=CC=C(C3=C2C4=C(S3)C=CC=C4)C5=C6O\C(=C/C(=O)C6=CC=C5)N7CCOCC7
3. Cc1c(C)n(Cc2ccc(-c3ccccc3C(=O)O)cc2)c2ccc(C(=O)N[C@@H](C)c3ccc([N+](=O)[O-])cc3)cc12
4. O=C(O)C1(Cc2cccc(Nc3nccs3)n2)CCC(Oc2cccc(Cl)c2F)CC1 (stereo not drawn)

1. 114
2. 116
3. 118
4. 110

* * *

- System: SEM cells
- method.description: cell viability relative to DMSO control; higher = less cytotoxic
- measurement.conditions: HPLM + 10% dialyzed FBS; 48 h; 0.00234 µM
endpoint: cell viability (%)
One number for each entry, in %.

Some solved entries appear below for comparison.
[[record]]
compound = "N[S+]([O-])(=O)C1=C(Cl)C=C2\\N=C/N[S+]([O-])(=O)C2=C1"
endpoint = "cell viability"
recorded_number = 96.5

[[record]]
compound = "ClC1=CC=C(C=C1)C(C#N)C2=C(Cl)C=C(C=C2Cl)N3\\N=C/C(=O)NC3=O (stereo not drawn)"
endpoint = "cell viability"
recorded_number = 43.9

[[record]]
compound = "COC(=O)Nc1nc2cc(C(=O)c3ccccc3)ccc2[nH]1"
endpoint = "cell viability"
recorded_number = 124

[[record]]
compound = "C[C@@H]1COCCN1c1cc(C2([S@+](C)(=N)[O-])CC2)nc(-c2ccnc3[nH]ccc23)n1"
endpoint = "cell viability"
recorded_number = 100

[[record]]
compound = "C[C@H]1C[C@@H]2[C@H](CC[C@@]3(C)[C@H]2CC[C@]3(OC(C)=O)C(C)=O)[C@@]\\4(C)CCC(=O)\\C=C14"
endpoint = "cell viability"
recorded_number = 101

[[record]]
compound = "O=C1NC(=O)/C(=C/c2ccc3nccc(-c4ccncc4)c3c2)S1"
endpoint = "cell viability"
recorded_number = 104

[[record]]
compound = "O=C(O)C1(Cc2cccc(Nc3nccs3)n2)CCC(Oc2cccc(Cl)c2F)CC1 (stereo not drawn)"
endpoint = "cell viability"
recorded_number = 108

[[record]]
compound = "CC(C)N[C@@H]1CCn2c(=O)[nH]c3cccc(c32)[C@H]1O"
endpoint = "cell viability"
recorded_number = 119


For every item below, please supply its cell viability.
1. CC[C@]12CC[C@H]3[C@@H](CCC/4=C/C(=O)CC[C@H]34)[C@@H]1\C=C/[C@@]2(O)C#C
2. COc1ccccc1OCC(O)COC(N)=O (stereo not drawn)
3. FC1=C(C=C(C\C2=N\NC(=O)C3=C2C=CC=C3)C=C1)C(=O)N4CCN(CC4)C(=O)C5CC5
4. Cc1cnn(C)c1C(=O)Nc1cc(Nc2ccc3c(/C=C/c4ccccn4)n[nH]c3c2)ccc1F
5. c1ccc(CCCN2CCN(CCOC(c3ccccc3)c3ccccc3)CC2)cc1

1: 96.1; 2: 102; 3: 84; 4: 123; 5: 98.3
